The origin of these recorded values is ChEMBL document CHEMBL4673363.

Target: hERG (KCNH2) (Homo sapiens, UniProt Q12809)
Sequence (Q12809 whole entry): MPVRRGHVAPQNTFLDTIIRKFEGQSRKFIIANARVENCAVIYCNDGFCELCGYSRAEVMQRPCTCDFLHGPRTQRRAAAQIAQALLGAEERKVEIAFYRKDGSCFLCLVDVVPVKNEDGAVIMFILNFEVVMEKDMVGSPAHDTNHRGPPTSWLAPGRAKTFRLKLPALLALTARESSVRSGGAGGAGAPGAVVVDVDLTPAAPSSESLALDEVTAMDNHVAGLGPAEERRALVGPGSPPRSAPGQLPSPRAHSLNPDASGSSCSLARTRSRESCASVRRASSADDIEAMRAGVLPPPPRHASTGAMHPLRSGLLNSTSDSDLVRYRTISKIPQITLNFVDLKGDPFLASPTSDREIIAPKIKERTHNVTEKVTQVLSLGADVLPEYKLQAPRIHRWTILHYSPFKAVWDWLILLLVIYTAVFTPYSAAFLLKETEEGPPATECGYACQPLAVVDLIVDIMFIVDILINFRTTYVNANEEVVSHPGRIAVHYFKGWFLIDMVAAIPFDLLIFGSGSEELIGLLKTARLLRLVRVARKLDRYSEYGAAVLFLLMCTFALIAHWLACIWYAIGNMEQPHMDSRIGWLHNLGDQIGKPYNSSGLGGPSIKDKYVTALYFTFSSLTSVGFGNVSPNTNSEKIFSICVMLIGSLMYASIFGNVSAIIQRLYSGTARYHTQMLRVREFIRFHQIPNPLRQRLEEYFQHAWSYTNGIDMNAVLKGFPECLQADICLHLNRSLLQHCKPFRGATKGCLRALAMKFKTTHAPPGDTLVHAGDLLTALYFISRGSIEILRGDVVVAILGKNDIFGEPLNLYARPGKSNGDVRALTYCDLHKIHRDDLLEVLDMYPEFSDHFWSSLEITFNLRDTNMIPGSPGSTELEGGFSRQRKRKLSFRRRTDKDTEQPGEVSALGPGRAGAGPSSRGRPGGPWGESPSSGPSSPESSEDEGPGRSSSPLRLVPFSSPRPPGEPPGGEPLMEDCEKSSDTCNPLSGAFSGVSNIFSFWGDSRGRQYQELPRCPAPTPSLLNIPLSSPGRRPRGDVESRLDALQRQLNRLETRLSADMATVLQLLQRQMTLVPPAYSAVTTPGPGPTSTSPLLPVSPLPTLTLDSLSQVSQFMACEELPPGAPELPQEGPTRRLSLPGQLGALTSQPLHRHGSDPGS
Assay: Inhibition of human ERG at 10 uM by Qpatch method relative to control

Cpd Smiles	inhibition at 10 µM / %
CC(C)n1c(-c2ccc(C3=CCN(C(=N)N)CC3)cc2)nnc1-c1ccc(C2=CCN(C(=N)N)CC2)cc1	21.6

----------
Test system: Rhizopus
Assay: Antifungal activity against Rhizopus assessed as inhibition of fungal growth by broth dilution assay
Format: functional, organism-based
Readout Label: IC50

Cpd Smiles	Readout Label	Reported Measurement
NC(N)=N/N=C/c1ccc(OCc2ccc(Cl)c(Cl)c2)cc1	IC50	> 12 µM

----------
System: Aspergillus flavus
Assay: Antifungal activity against Aspergillus flavus ATCC 3631
Assay type: functional
MIC reference

Cpd Smiles	Inequality Sign	MIC, µg/mL
Cn1c(-c2ccc(C3=CCN(C(=N)N)CC3)cc2)cnc1-c1ccc(C2=CCN(C(=N)N)CC2)cc1	=	0.39
N=C(N)N1CC=C(c2ccc(-c3nnc(-c4ccc(C5=CCN(C(=N)N)CC5)cc4)n3Cc3ccccc3)cc2)CC1	=	1.56
Cn1c(-c2ccc(C3=CCN(C(=N)N)CC3)cc2)nnc1-c1ccc(C2=CCN(C(=N)N)CC2)c(C(F)(F)F)c1	=	0.39
CC(C)n1c(-c2ccc(C3=CCN(C(=N)N)CC3)cc2)nnc1-c1ccc(C2=CCN(C(=N)N)CC2)cc1	<	0.1
Cc1cc(C2=CCN(C(=N)N)CC2)ccc1-c1nnc(-c2ccc(C3=CCN(C(=N)N)CC3)cc2C)n1C	=	0.39
Cn1c(-c2ccc(N3CCN(C(=N)N)CC3)cc2)nnc1-c1ccc(N2CCN(C(=N)N)CC2)cc1	=	0.78
COCCn1c(-c2ccc(C3=CCN(C(=N)N)CC3)cc2)nnc1-c1ccc(C2=CCN(C(=N)N)CC2)cc1	=	0.2
Cn1c(-c2ccc(CNC(=N)N)cc2)cnc1-c1ccc(CNC(=N)N)cc1	>	100
